I'd appreciate it if you could supply parental ratio values for the items below.
target: CD28 (human) (UniProt P10747); test: flow cytometry, Expi293F cells transfected with CD28
One number for each entry.

Per the record, CD80 R29V/M43Q/E81R/L85I/K89R/D90L/A91E/F92N/K93Q/R94G ECD-Fc (Fc fusion) VIHVTKEVKEVATLSCGHNVSVEELAQTVIYWQKEKKMVLTMQSGDMNIWPEYKNRTIFDITNNLSIVILALRPSDEGTYRCVVIKYERLENQGEHLAEVTLSVKADFPTPSISDFEIPTSNIRRIICSTSGGFPEPHLSWLENGEELNAINTTVSQDPETELYAVSSKLDFNMTTNHSFMCLIKYGHLRVNQTFNWNTTKQEHFPDN has parental ratio of 0.08

Next:
Per the record, CD80 K37E/F59S/L70Q/A91G/T120S/T130A ECD-Fc (SEQ ID NO 1397) (Fc fusion) VIHVTKEVKEVATLSCGHNVSVEELAQTRIYWQKEKEMVLTMMSGDMNIWPEYKNRTISDITNNLSIVIQALRPSDEGTYECVVLKYEKDGFKREHLAEVTLSVKADFPTPSISDFEVPSSNIRRIICSASGGFPEPHLSWLENGEELNAINTTVSQDPETELYAVSSKLDFNMTTNHSFMCLIEYGHLRVNQTFNWNTTKQEHFPDN has parental ratio of 0.21
